Data provenance is paper PMC10206040.

tested on: L6 cells; assay: Rat skeletal muscle cell line (L6) cytotoxicity assay (resazurin); conditions: Table S2; in µM
experimentalEndpoint: L6 TC50 ± Standard Deviation

See these solved cases before continuing.
INPUT: If you can, please state the reported L6 TC50 ± Standard Deviation value of `O=C(N[C@H](CO)c1ccccc1)c1cc(-c2c[nH]c3ncccc23)[nH]n1` .
OUTPUT: > 17

INPUT: Could you tell me which L6 TC50 ± Standard Deviation is on file for `Nc1ccnc(-c2cc3c4c(n[nH]c4c2)Nc2ccccc2O3)n1` ?
OUTPUT: 32 ± 2.5

INPUT: Find the recorded L6 TC50 ± Standard Deviation belonging to `CCOc1cc(-c2ccnc(N)n2)cc2c1c(N)nn2C` and report it.
OUTPUT: > 17 ± 0.052

INPUT: Query (compound): `CNc1nccc(-c2cc3c4c(n[nH]c4c2)Nc2ccccc2O3)n1` ; field requested: L6 TC50 ± Standard Deviation
OUTPUT: 6.3 ± 0.55

INPUT: Param item = `Cn1cc(Nc2nc(NCCCC(F)(F)F)c3nc[nH]c3n2)cn1` ; retrieve measured L6 TC50 ± Standard Deviation.
OUTPUT: > 50

***
INPUT: May I ask what L6 TC50 ± Standard Deviation has been recorded for `O=C1OCc2ccc(Nc3nccc(Nc4cccc5c4C(=O)NC5)n3)cc21` ?
OUTPUT: > 50

INPUT: Form field: reported L6 TC50 ± Standard Deviation of `FC1(F)CCN(c2nc(Nc3ccsc3)nc3[nH]cnc23)CC1`
OUTPUT: > 50

INPUT: I'd like to know its L6 TC50 ± Standard Deviation. The compound in question is `O=C(N[C@H](CO)c1ccccc1)c1ccc(-c2c[nH]c3ncccc23)nc1`
OUTPUT: > 50

---

// values below are reported CC50 at 72 h
Experiment: Rat skeletal muscle cell line (L6) cytotoxicity assay (resazurin)
Conditions: rat, L6 cells (rat skeletal muscle cell line)
Procedure: One hundred microliters (100 μL) per well of culture medium containing the compounds and controls were added to L6 cells previously cultured (4 × 10^3 L6 cells per well). After 72 h at 37°C the medium was exchanged, and the viable cell number was determined by resazurin (Sigma–Aldrich) reduction. 20 μl of resazurin (1.1 mg/ml) was added to each well and incubated in the dark for 2 h at 37°C.
Return type: number; implicit unit µM.

Some molecules with recorded CC50 at 72 h:
INPUT: Which CC50 at 72 h value belongs to `CNc1nccc(-c2cc3c4c(n[nH]c4c2)Nc2ccccc2O3)n1` ?
OUTPUT: 6.3

INPUT: State the recorded CC50 at 72 h for this entry: `N#Cc1cccc(-c2n[nH]c3ncc(-c4cnn(C5CCOCC5)c4)cc23)c1`
OUTPUT: 2.8

INPUT: Requested read-out: CC50 at 72 h. Entry: `Nc1ccnc(-c2cc3c4c(n[nH]c4c2)Nc2ccccc2O3)n1`
OUTPUT: 32

Kindly review the next molecule as well.
INPUT: # CC50 at 72 h lookup, item `Cc1c(-c2cnn(C3CCOCC3)c2)cnc2[nH]cc(-c3cccc(C#N)c3)c12`
OUTPUT: 11

---

system: Balamuthia mandrillaris (CDC:V039; ATCC 50209) trophozoites; assay: CellTiter-Glo 2.0 trophocidal assay, B. mandrillaris; format: cell-based; settings: Balamuthia mandrillaris, ATCC50209, 72 h, logarithmic trophozoites, 72 h, n = 3; read-out: Balamuthia mandrillaris EC50 ± SD
// reported EC50 for each item listed
Write the value in µM as a bare number.

Some solved entries appear below for comparison.
INPUT: Lab request: please report EC50 under test system Balamuthia mandrillaris (CDC:V039; ATCC 50209) trophozoites for `CCOc1cc(-c2ccnc(N)n2)cc2c1c(N)nn2C`
OUTPUT: 9.49

INPUT: Form: Entry = [H]/N=C(\N/C(=N/[H])NCCCCCCNC(=N)NC(=N)Nc1ccc(Cl)cc1)Nc1ccc(Cl)cc1 [Chlorhexidine, reference compound] | System = Balamuthia mandrillaris (CDC:V039; ATCC 50209) trophozoites | EC50 = ____
OUTPUT: 1.6

INPUT: Lab note: need EC50 for `CC(=O)c1cc2c3cc(C(C)=O)c(O)cc3n(CCNC(C)C)c2cc1O` on Balamuthia mandrillaris (CDC:V039; ATCC 50209) trophozoites, anyone have it?
OUTPUT: 11

Others:
INPUT: Fill in the recorded EC50 for this molecule, with Balamuthia mandrillaris (CDC:V039; ATCC 50209) trophozoites as test system: `Cc1c(-c2cnn(C3CCOCC3)c2)cnc2[nH]cc(-c3cccc(C#N)c3)c12`
OUTPUT: 1

INPUT: Item: `Nc1ccnc(-c2cc3c4c(n[nH]c4c2)Nc2ccccc2O3)n1` Test system: Balamuthia mandrillaris (CDC:V039; ATCC 50209) trophozoites Read-out: EC50 Value: ?
OUTPUT: 17

INPUT: Any idea what EC50 came out for `CC(=O)c1ccc2c(c1)c1cc(C(C)=O)ccc1n2CCCN(C)C` on Balamuthia mandrillaris (CDC:V039; ATCC 50209) trophozoites?
OUTPUT: 19
